Examples of compounds with documented k2 Caspase-9 follow.
target: Caspase-9 (Homo sapiens); experiment: Caspase-9 progress curve inhibition assay; settings: second-order rate constant; Ac-LEHD-AFC substrate; Hepes buffer pH 7.0 with 0.7 M sodium citrate
Sequence (P55211 1-315 limits assumed): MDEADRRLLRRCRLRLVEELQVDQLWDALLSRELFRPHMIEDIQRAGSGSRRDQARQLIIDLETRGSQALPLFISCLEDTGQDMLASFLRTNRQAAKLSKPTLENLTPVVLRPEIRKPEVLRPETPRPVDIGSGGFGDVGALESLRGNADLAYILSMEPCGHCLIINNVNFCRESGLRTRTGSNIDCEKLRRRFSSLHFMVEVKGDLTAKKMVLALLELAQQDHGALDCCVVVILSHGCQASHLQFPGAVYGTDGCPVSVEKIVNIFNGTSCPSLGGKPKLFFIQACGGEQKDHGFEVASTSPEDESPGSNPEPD
Sequence (P55211 331-416 limits assumed): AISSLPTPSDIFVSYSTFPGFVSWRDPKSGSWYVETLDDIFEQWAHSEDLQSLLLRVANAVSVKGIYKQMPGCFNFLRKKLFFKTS
assayReadout: k2 Caspase-9

compound: CC(C)C[C@H](NC(=O)OCc1ccccc1)C(=O)N[C@@H](CCC(=O)O)C(=O)N[C@H](C(=O)NN(CC(=O)O)C(=O)/C=C/C(=O)N(C)Cc1ccccc1)[C@@H](C)O (relative stereo) [Cbz-Leu-Glu-Thr-AAsp-CH═CH—CON(CH3)CH2Ph]
assayReadout: k2 Caspase-9
measuredResult: 4,320 M^−1s^−1
--
compound: CC(C)C[C@H](NC(=O)OCc1ccccc1)C(=O)N[C@@H](CCC(=O)O)C(=O)N[C@H](C(=O)NN(CC(=O)O)C(=O)/C=C/C(=O)N(C)Cc1cccc2ccccc12)[C@@H](C)O (relative stereo)
assayReadout: k2 Caspase-9
measuredResult: 5,030 M^−1s^−1
--
compound: CC[C@H](C)[C@H](NC(=O)OCc1ccccc1)C(=O)N[C@@H](CCC(=O)O)C(=O)N[C@H](C(=O)NN(CC(=O)O)C(=O)/C=C/C(=O)N(Cc1ccccc1)Cc1ccccc1)[C@@H](C)O (relative stereo) [Cbz-Ile-Glu-Thr-AAsp-CH═CH—CON(CH2Ph)2]
assayReadout: k2 Caspase-9
measuredResult: 1,930 M^−1s^−1
--
compound: CC(C)C[C@H](NC(=O)OCc1ccccc1)C(=O)N[C@@H](CCC(=O)O)C(=O)N[C@H](C(=O)NN(CC(=O)O)C(=O)/C=C/C(=O)N(Cc1ccccc1)Cc1ccccc1)[C@@H](C)O (relative stereo) [Cbz-Leu-Glu-Thr-AAsp-CH═CH—CON(CH2Ph)2]
assayReadout: k2 Caspase-9
measuredResult: 1,105 M^−1s^−1
--
compound: CC(C)C[C@H](NC(=O)OCc1ccccc1)C(=O)N[C@@H](CCC(=O)O)C(=O)N[C@H](C(=O)NN(CC(=O)O)C(=O)/C=C/C(=O)Nc1ccccc1)[C@@H](C)O (relative stereo) [Cbz-Leu-Glu-Thr-AAsp-CH═CH—CONHPh]
assayReadout: k2 Caspase-9
measuredResult: 1,190 M^−1s^−1
--
compound: CCOC(=O)/C=C/C(=O)N(CC(=O)O)NC(=O)[C@@H](NC(=O)OCc1ccccc1)C(C)C (stereo in doubt) [Cbz-Val-AAsp-CH═CH—COOEt]
assayReadout: k2 Caspase-9
measuredResult: 5,240 M^−1s^−1
--
compound: CC(C)[C@H](NC(=O)[C@H](CCC(=O)O)NC(=O)[C@H](CC(=O)O)NC(=O)OCc1ccccc1)C(=O)NN(CC(=O)O)C(=O)/C=C/C(=O)NCc1ccccc1 (relative stereo) [Cbz-Asp-Glu-Val-AAsp-CH═CH—CONHCH2Ph]
assayReadout: k2 Caspase-9
measuredResult: 2,010 M^−1s^−1
